Target chain: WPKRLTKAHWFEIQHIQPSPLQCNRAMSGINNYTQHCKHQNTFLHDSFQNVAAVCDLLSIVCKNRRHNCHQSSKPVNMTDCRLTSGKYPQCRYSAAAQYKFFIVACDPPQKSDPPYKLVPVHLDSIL
MEASUREMENT TYPE: pKd
Remember the convention: pKd equals -log10 of concentration in molar.

Q: Provide measured pKd value, entry: Nc1ncnc2c1ncn2[C@@H]1O[C@H](COP(=O)(O)O)[C@@H](O)[C@H]1O [5’-AMP]
Ans: 3.81
